Molecular target: TNAP (Homo sapiens, UniProt P05186)
Construct: made in house; host or cells: COS-1 cells, transient expression; dialyzed serum-free conditioned medium
Assay: TNAP luminescent assay (CDP-star substrate, 100 mM DEA)
Assay type: biochemical
Conditions: luminescence-based assay, 0.1M DEA; read-out: TNAP IC50
Catalogue of compounds with associated IC50

Some compounds with recorded IC50:
| molecule.smiles | reading |
| --- | --- |
| COC(=O)c1cc(-c2ccc(Cl)cc2Cl)n[nH]1 | 500 nM |
| O=C(O)c1[nH]nc2c1COc1ccccc1-2 | 1330 nM |

[ask] Need IC50, item O=C(c1[nH]nc2c1COc1ccccc1-2)N1CCCC1
[reply] 480 nM

[ask] # iterate: O=S(=O)(Nc1cnc2ccccc2c1)c1ccccc1
[reply] > 100000 nM

----------
Target: TNAP (Homo sapiens)
Construct: made in house; host or cells: COS-1 cells, transient expression; dialyzed serum-free conditioned medium
Sequence (P05186 18-501 limits assumed): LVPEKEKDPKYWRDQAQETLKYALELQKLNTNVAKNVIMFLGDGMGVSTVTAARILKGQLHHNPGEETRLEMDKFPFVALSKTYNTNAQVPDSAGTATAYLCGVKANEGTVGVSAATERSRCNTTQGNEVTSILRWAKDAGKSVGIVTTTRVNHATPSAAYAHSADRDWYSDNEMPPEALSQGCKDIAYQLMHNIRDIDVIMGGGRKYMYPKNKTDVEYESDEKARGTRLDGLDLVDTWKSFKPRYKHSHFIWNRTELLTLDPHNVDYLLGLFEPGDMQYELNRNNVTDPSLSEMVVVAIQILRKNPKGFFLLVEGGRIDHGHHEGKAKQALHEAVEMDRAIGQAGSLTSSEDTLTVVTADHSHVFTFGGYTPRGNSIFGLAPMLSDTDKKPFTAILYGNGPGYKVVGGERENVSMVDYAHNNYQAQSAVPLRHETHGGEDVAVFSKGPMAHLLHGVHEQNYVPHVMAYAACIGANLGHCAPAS
Experiment: TNAP colorimetric assay (pNPP substrate, OD405, 1M DEA)
Type: biochemical
Details: unit not given in Table 8; n=6; read-out: TNAP-Color
quantity: IC50

[ask] Which IC50 reading was recorded for the molecule O=C1C2CC=CCC2C(=O)N1c1nc(-c2ccccc2)n[nH]1 (stereo not shown) ?
[reply] > 100 µM

----------
Molecular target: TNAP (Homo sapiens)
Construct: made in house; host or cells: COS-1 cells, transient expression; dialyzed serum-free conditioned medium
Assay: TNAP luminescent assay (CDP-star substrate, 100 mM DEA)
Type: biochemical
Settings: optimized pyrazole series; read-out: TNAP Lumi IC50
quantity: IC50 (nM)
# unit: nM | format: bare number

| molecule.smiles | units.symbol | IC50 |
| --- | --- | --- |
| O=C(NCCO)c1cc(-c2ccc(Cl)cc2Cl)n[nH]1 | nM | 20 |
| O=C(NCCO)c1cc(-c2cc(F)c(Cl)cc2Cl)n[nH]1 | nM | 42 |
| NNC(=O)c1cc(-c2ccc(Cl)cc2Cl)n[nH]1 | nM | 52 |
| CC(C)NC(=O)c1cc(-c2ccc(Cl)cc2Cl)n[nH]1 | nM | 24 |

Please look at the following compound next.
[ask] Fill in: IC50 of CN(C)C(=O)c1cc(-c2ccc(Cl)cc2Cl)n[nH]1 is ___
[reply] 75
